Here's a roundup of pIC50 values tested on Beta-glucosidase (Homo sapiens), taken from various published works.
Sequence (Q9HCG7 whole entry): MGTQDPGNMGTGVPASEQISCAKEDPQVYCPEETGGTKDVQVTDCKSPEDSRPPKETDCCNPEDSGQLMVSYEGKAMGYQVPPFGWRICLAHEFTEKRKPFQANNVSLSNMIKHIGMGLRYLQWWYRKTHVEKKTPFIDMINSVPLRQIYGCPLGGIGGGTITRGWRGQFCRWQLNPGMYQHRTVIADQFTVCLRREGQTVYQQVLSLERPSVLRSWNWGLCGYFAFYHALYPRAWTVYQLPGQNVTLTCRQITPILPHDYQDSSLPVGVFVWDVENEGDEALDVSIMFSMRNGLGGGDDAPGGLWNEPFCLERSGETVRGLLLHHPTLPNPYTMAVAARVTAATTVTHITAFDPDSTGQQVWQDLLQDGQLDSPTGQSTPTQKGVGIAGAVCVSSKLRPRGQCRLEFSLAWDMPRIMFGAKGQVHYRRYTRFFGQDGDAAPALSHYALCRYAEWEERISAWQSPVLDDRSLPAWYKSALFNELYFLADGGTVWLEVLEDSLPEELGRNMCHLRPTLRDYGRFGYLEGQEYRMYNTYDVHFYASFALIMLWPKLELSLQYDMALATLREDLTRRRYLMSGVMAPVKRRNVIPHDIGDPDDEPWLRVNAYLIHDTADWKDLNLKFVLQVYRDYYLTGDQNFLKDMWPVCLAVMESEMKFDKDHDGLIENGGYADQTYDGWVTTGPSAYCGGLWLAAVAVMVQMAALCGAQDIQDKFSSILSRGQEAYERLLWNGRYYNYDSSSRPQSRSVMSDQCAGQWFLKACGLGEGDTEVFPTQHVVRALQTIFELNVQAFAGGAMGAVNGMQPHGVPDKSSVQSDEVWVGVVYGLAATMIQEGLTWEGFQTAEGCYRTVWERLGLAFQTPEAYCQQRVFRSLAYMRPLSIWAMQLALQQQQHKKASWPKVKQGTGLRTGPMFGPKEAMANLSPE
pIC50: −log10 of the molar value.
The threshold is inclusive: pIC50 of exactly 8 counts as criterion met; values below receive criterion not met.

Reference set (10 entries):
1) OC[C@H]1[C@H](O)[C@H](O)CCN1CCCCCOCC12CC3CC(CC(C3)C1)C2: criterion not met
2) OC[C@H]1[C@@H](O)[C@H](O)[C@@H](O)CN1CCCCCOCc1ccccc1: criterion met
3) OC[C@@H]1[C@@H](O)[C@H](O)CCN1CCCCCOCC12CC3CC(CC(C3)C1)C2: criterion not met
4) CCCCN1CC=C[C@H](O)[C@H]1CO: criterion not met
5) OC[C@@H]1[C@@H](O)[C@H](O)[C@@H](O)CN1CCCC(F)(F)COCc1ccc(-c2ccccc2)cc1: criterion met
6) OC[C@@H]1[C@@H](O)C=CCN1CCCCCOCC12CC3CC(CC(C3)C1)C2: criterion not met
7) OC[C@@H]1[C@@H](O)CCCN1CCCCCOCC12CC3CC(CC(C3)C1)C2: criterion not met
8) CCCCN1CCC[C@@H](O)[C@H]1CO: criterion not met
9) OC[C@@H]1[C@H](O)[C@H](O)CCN1CCCCCOCC12CC3CC(CC(C3)C1)C2: criterion not met
10) OC[C@H]1NCC[C@H](O)[C@H]1O: criterion not met

Query: Can `CCCC(=O)N[C@@H]1[C@H]2O[C@H](CO)[C@@H](O)[C@H](O)[C@@H]12` be said to have pIC50 at or above 8?
Result: criterion not met

Query: Proceed to `OC[C@@H]1[C@@H](O)[C@H](O)[C@@H](O)CN1CCCCCOCc1ccc(-c2ccccc2)cc1F`
Result: criterion met

Query: And what about the compound `CCCCN1CC[C@@H](O)[C@@H](O)[C@@H]1CO` ?
Result: criterion not met

Query: Field entry: `CC(C)=CCC/C(C)=C/CC/C(C)=C/CCOCCCCCN1C[C@H](O)[C@@H](O)[C@H](O)[C@@H]1CO`
Result: criterion not met

* * *

Please find below IC50 data on UniProt:Q9HCG7 compiled from the literature.
The threshold is 0.01 µM. Values of IC50 beneath it are tagged criterion met; values meeting or exceeding it are tagged criterion not met.

Solved entries (count: 5):
1) OC[C@@H]1[C@@H](O)[C@H](O)[C@@H](O)CN1CCCCCOCc1ccc(-c2ccc3c(c2)OCO3)cc1: criterion met
2) OC[C@@H]1[C@@H](O)[C@H](O)[C@@H](O)CN1CCCCCOCc1ccccc1: criterion met
3) OC[C@@H]1NCC=C[C@@H]1O: criterion not met
4) CCCCN1CC[C@H](O)[C@@H](O)[C@@H]1CO: criterion not met
5) OC[C@H]1NCCC[C@@H]1O: criterion not met

Query: Does the reported IC50 of `CC(C)=CCC/C(C)=C/CC/C(C)=C/CCOCCCCCN1C[C@H](O)[C@@H](O)[C@H](O)[C@H]1CO` stay below 0.01 µM?
Result: criterion not met

Query: Try this molecule next: `OC[C@@H]1[C@@H](O)[C@H](O)[C@@H](O)CN1CCCCCOCc1ccc(-c2ccc3c(c2)OCCCO3)cc1`
Result: criterion not met

Query: Another molecule to look at: OC[C@H]1[C@@H](O)[C@H](O)[C@@H](O)CN1CCCCCOCC1C2CC3CC(C2)CC1C3 (stereo not given in full)
Result: criterion met

Query: Please answer likewise for `OC[C@H]1[C@@H](O)[C@H](O)[C@@H](O)CN1CCCCCOCC1CCCCC1`
Result: criterion met

Query: Also `C[C@@H](OCCCCCN1C[C@H](O)[C@@H](O)[C@H](O)[C@H]1CO)c1ccc(-c2ccccc2)cc1` , if possible.
Result: criterion met

Query: # iterate: `CCCCN1CC[C@H](O)[C@H](O)[C@H]1CO`
Result: criterion not met

Query: Query `C#CCOc1ccc(C(=O)c2ccc(C(=O)NCCCN3C[C@H](O)[C@@H](O)[C@H](O)[C@H]3CO)cc2)cc1` next
Result: criterion not met

Query: Repeat with `CCCCN1CC[C@H](O)[C@H](O)[C@@H]1CO`
Result: criterion not met

Query: Cool, now `OC[C@H]1[C@@H](O)[C@H](O)[C@@H](O)CN1CCCCCCOCC12CC3CC(CC(C3)C1)C2`
Result: criterion met
